Origin of measurements: BindingDB's records for doi:10.1016/j.bmcl.2014.08.026

# procedureText: Antagonist activity at CRTH2 receptor in human whole blood assessed as inhibition of PGD2-induced eosinophil shape change after 10 mins by fluorescence assay
observedProperty: IC50 (nM)

[[record]]
molecule = "Cc1c(Cc2ccccc2S(=O)(=O)c2ccccc2)c2c(n1CC(=O)O)CCNC2=O"
number = 8

